ASSAYED SYSTEM: Sphingosine kinase 1 (Homo sapiens, UniProt Q9NYA1)
Sequence (Q9NYA1 whole entry): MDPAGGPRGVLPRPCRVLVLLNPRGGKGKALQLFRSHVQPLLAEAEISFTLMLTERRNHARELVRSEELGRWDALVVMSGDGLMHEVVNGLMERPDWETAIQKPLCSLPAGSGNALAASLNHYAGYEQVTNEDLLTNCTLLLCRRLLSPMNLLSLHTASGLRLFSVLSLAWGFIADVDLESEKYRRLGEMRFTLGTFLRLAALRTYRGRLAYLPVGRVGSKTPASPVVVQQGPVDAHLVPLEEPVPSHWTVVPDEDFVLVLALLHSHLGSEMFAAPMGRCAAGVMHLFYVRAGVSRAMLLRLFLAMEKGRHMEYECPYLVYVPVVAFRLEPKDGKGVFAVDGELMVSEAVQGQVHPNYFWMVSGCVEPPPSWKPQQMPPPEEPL
TEST: Inhibition of recombinant SphK1 expressed in baculovirus infected Sf9 cells using D-erythro-sphingosine as substrate and [32gammaP]ATP assessed as residual activity at 10 uM by scintillation counting
ENDPOINT LABEL: Activity (%)

Here's what some known entries look like.
[
  {
    "CHEMICAL SMILES": "CCCCCCCCCC#Cc1ccc([C@H]2CC[C@H]([N+](C)(C)CCC)CC2)cc1",
    "Activity / %": 62
  },
  {
    "CHEMICAL SMILES": "CCCCCCCCCCCC(=O)c1ccc([C@H]2CC[C@H]([N+](C)(C)CCC)CC2)cc1",
    "Activity / %": 88
  },
  {
    "CHEMICAL SMILES": "CCCCCCCCc1ccc([C@H]2CC[C@H]([N+](C)(C)CCC)CC2)cc1",
    "Activity / %": 100
  },
  {
    "CHEMICAL SMILES": "CCCCCCCCCCCCc1ccc([C@H]2CC[C@H]([N+](C)(C)CCC)CC2)cc1",
    "Activity / %": 63
  },
  {
    "CHEMICAL SMILES": "CCCCCC(=O)c1ccc([C@H]2CC[C@H]([N+](C)(C)CCC)CC2)cc1",
    "Activity / %": 89
  },
  {
    "CHEMICAL SMILES": "CCCCCCCCCCC(=O)c1ccc([C@H]2CC[C@H]([N+](C)(C)CCC)CC2)cc1",
    "Activity / %": 79
  },
  {
    "CHEMICAL SMILES": "CCCCCCCCCCCCCCCCc1ccc([C@H]2CC[C@H]([N+](C)(C)CCC)CC2)cc1",
    "Activity / %": 94
  },
  {
    "CHEMICAL SMILES": "CCCCCCCCCCCCCC(=O)c1ccc([C@H]2CC[C@H]([N+](C)(C)CCC)CC2)cc1",
    "Activity / %": 73
  }
]

a: CCCCCCCCCCCCCCCC(=O)c1ccc([C@H]2CC[C@H]([N+](C)(C)CCC)CC2)cc1
b: CCCCCCCCCCCc1ccc([C@H]2CC[C@H]([N+](C)(C)CCC)CC2)cc1
Returns: the label, a or b , whose recorded Activity is the lower number. Select an item and report its label.
b
